target: Nuclear receptor subfamily 1 group I member 3 (Homo sapiens); test: qHTS assay to identify small molecule antagonists of the constitutive androstane receptor (CAR) signaling pathway (AID 1224838); details: HepG2-CYP2B6-hCAR luciferase, CITCO-stimulated, 24 h; series mostly up to 92.4 µM;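 also: HepG2 cells stably expressing hCAR with CYP2B6 luciferase reporter stimulated by CITCO; nearly all actives have a fitted effect of over 40% in size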
Inconclusive results are not listed. Active and inactive are the calls of the source. Calls follow the shape of the dose curve; as a rule, active = well fitted inhibition curve with a large enough effect in the repeat runs; inconclusive = weak or mixed curves, or effect the other way; inactive = no such curve, though single readings can be large or run the other way.
Hello, when you answer, please use one of the following outcomes: active, inactive

Use these answered entries as a reference point.
molecule="CCC(C)Nc1ccc(NC(C)CC)cc1 (configuration not stated)" subject_of_test="Nuclear receptor subfamily 1 group I member 3 (Homo sapiens)" class_assignment=active
molecule=N/C(=N\N=C\c1ccc(Cl)cc1)N/N=C/c1ccc(Cl)cc1 subject_of_test="Nuclear receptor subfamily 1 group I member 3 (Homo sapiens)" class_assignment=inactive
molecule=C1CCCC1 subject_of_test="Nuclear receptor subfamily 1 group I member 3 (Homo sapiens)" class_assignment=inactive

stdin: Per the assay record, what outcome was assigned to NNc1nc(-c2ccccc2)cs1 ?
stdout: inactive

stdin: Please share the test call associated with CCCCCCOC(=O)c1ccc(O)cc1 .
stdout: inactive

stdin: For CC(C)(C)C(=O)OCOC(=O)[C@@H]1N2C(=O)[C@@H](NC(=O)[C@H](N)c3ccccc3)[C@H]2SC1(C)C , what call appears in the results of this test?
stdout: inactive

stdin: Could you kindly confirm the outcome this assay logged for CN(C)c1ccc(SC#N)cc1 ?
stdout: active

====

experiment: qHTS assay to identify small molecule antagonists of the estrogen receptor beta (ER-beta) signaling pathway - cell viability counter screen (AID 1259382); conditions: ER-beta-UAS-bla HEK293T viability, CellTiter-Glo luminescence, 16 h; series mostly up to 92.4 µM; also: nearly all actives have a fitted effect of over 55% in size
Inconclusive results are not listed. The source made the active and inactive calls. Calls come from the whole dose curve; as a rule, active = well fitted cell-killing curve with a large enough effect in the repeat runs; inconclusive = weak or mixed curves; inactive = flat fitted curve, though single readings scatter.
Your response should consist of one outcome taken from y for active, n for inactive

compound=N=C1N=C(N)c2ccccc21 class_assignment=n
compound=Cc1onc(-c2c(Cl)cccc2Cl)c1C(=O)N[C@@H]1C(=O)N2[C@@H]1SC(C)(C)[C@@H]2C(=O)O class_assignment=n
compound=CCN(C(=O)c1cc(C)cc(OC[C@H](C)Nc2ccncc2)c1)C(C)C class_assignment=n
compound=O=C1C=CC(=O)N1 class_assignment=y
compound="Cc1c(C)c2c(c(C)c1O)CCC(C)(COc1ccc(CC3SC(=O)NC3=O)cc1)O2 (stereo unspecified)" class_assignment=n

stdin: Record request — test call for COc1cccc(N)c1
stdout: n

====

assay: A CellTox Green Cytotoxicity Assay to monitor cytotoxicity in HepG2 cells - 32 hour (AID 1224883); settings: CellTox Green fluorescence; series mostly up to 76.8 µM; also: nearly all actives have a fitted effect of over 50% in size
Results filed as inconclusive are left out. The source made the active and inactive calls. Calls come from the whole dose curve; as a rule, active = well fitted activation curve with a large enough effect in the repeat runs; inconclusive = weak or mixed curves; inactive = flat fitted curve, though single readings scatter.
Your response should consist of one outcome taken from y = active, n = inactive

molecule=CCC1=C[C@@H]2CN(C1)Cc1c([nH]c3ccccc13)[C@@](C(=O)OC)(c1cc3c(cc1OC)N(C)[C@H]1[C@@](O)(C(=O)OC)[C@H](OC(C)=O)[C@]4(CC)C=CCN5CC[C@]31[C@@H]54)C2 class_assignment=n

stdin: Field: outcome | Entry: COC(=O)C1=C(C)NC(C)=C(C(=O)OCCc2ccc(N3CCN(C(c4ccccc4)c4ccccc4)CC3)cc2)C1c1cccc([N+](=O)[O-])c1 (stereo not given)
stdout: n

stdin: Record lookup: outcome of this test for CC(C)CCCCCCCCCCCCCCC(=O)O ?
stdout: n

====

assay: qHTS assay to identify small molecule antagonists of the estrogen related receptor signaling pathway with the pleiotropic PPARgamma coactivator (PGC) from Tox21 10K library - cell viability counter screen (AID 1224840); conditions: PGC/ERR reporter cells viability, CellTiter-Fluor, 17.5 h; series mostly up to 92.4 µM; also: nearly all actives have a fitted effect of over 40% in size
Records with an inconclusive call do not appear. Active and inactive are the calls of the source. Calls come from the whole dose curve; as a rule, active = well fitted cell-killing curve with a large enough effect in the repeat runs (not every such curve was filed as active); inconclusive = weak or mixed curves, or effect the other way; inactive = no such curve, though single readings can be large or run the other way.
Bench note: report the call from t for active, f for inactive

These solved cases illustrate the format of a correct answer.
molecule="Cc1c(C)c2c(c(C)c1O)CCC(C)(COc1ccc(CC3SC(=O)NC3=O)cc1)O2 (stereo not drawn)" class_assignment=f
molecule=Cc1cc(N)c(S(=O)(=O)O)cc1Cl class_assignment=f
molecule=NC(=NCCCCCCN=C(N)/N=C(\N)Nc1ccc(Cl)cc1)/N=C(\N)Nc1ccc(Cl)cc1 class_assignment=t
molecule=N#CC1(c2ccc(F)cc2)CCC(=O)CC1 class_assignment=f
molecule=CCCCCOc1ccccc1/C(=C\SC)n1ccnc1 class_assignment=f

stdin: Which result was noted for this molecule in the test: C[n+]1ccn(Cc2ccccc2)c1
stdout: f

stdin: Lab log entry: CCCCCCCCS(=O)C(C)Cc1ccc2c(c1)OCO2 (stereo not drawn) — outcome as called in the assay?
stdout: f

stdin: GET /call?item= C=C(C)C(=O)OCC[N+](C)(C)C returns the recorded outcome of this test.
stdout: f

stdin: Could you please tell me the result logged for O=C(OCC(COC(=O)c1ccccc1)(COC(=O)c1ccccc1)COC(=O)c1ccccc1)c1ccccc1 in this assay?
stdout: f

stdin: // param item: CCC(CN)=C(c1ccccc1)c1ccccc1 ; yields the recorded call
stdout: f

stdin: What is the recorded call for this molecule in the test? Nc1ccc(N)c2ccccc12
stdout: t

stdin: In this assay, the call recorded for CCCCC(CC)COC(=O)c1ccccc1C(=O)O (stereo not drawn) was what?
stdout: f

stdin: Tell me the recorded outcome of this test for O=C1c2ccccc2Cc2ccccc21 .
stdout: f

stdin: Fill in: this test's call for CC(=O)N1CCN(c2ccc(OC[C@H]3CO[C@](Cn4ccnc4)(c4ccc(Cl)cc4Cl)O3)cc2)CC1 is ___
stdout: t

stdin: What did this assay record as the result for CCc1oc2ccccc2c1C(=O)c1cc(Br)c(O)c(Br)c1 ?
stdout: f

stdin: Any idea what this test logged for O=C(c1ccc(O)cc1O)c1ccc(O)cc1O ?
stdout: f

stdin: Just curious, what result did [Cl][Bi]([Cl])([c]1ccccc1)([c]1ccccc1)[c]1ccccc1 get here?
stdout: t

stdin: Please indicate how the test categorized CN1CCN(CCC(=O)N2c3ccccc3Sc3ccc(C(F)(F)F)cc32)CC1 .
stdout: t

stdin: Kindly provide the recorded test outcome for the following molecule: CC[C@@]1(O)C(=O)OCc2c1cc1n(c2=O)Cc2c-1nc1ccccc1c2/C=N/OC(C)(C)C
stdout: f

stdin: For this molecule, state the assay outcome: CCOC(=O)O[C@H](C)OC(=O)c1ccc2c(c1)cc(C(=O)NC1CCN(C(C)C)CC1)n2Cc1cc(-c2ccc(Cl)s2)on1
stdout: t

====

assay: qHTS assay to identify small molecule antagonists of the vitamin D receptor (VDR) signaling pathway - cell viability counter screen (AID 743225); conditions: VDR-bla HEK293T viability, CellTiter-Glo luminescence, 16 h; series mostly up to 61 µM; also: nearly all actives have a fitted effect of over 50% in size; also: potency is read from the fitted curve at half-maximal effect
Inconclusive results are not listed. Activity calls are given as the source filed them. Calls follow the shape of the dose curve; as a rule, active = well fitted cell-killing curve with a large enough effect in the repeat runs; inconclusive = weak or mixed curves, or effect the other way; inactive = no such curve, though single readings can be large or run the other way.
measured metric: Potency

compound=CCCCCCCCCCCC(=O)NCCCN(C)C reported_value="38.9 µM (active)"
compound=C[C@@H](NCCCc1cccc(C(F)(F)F)c1)c1cccc2ccccc12 reported_value="23.9 µM (active)"
compound=Cc1cc(O)c(C(C)(C)C)cc1C(C)(C)C reported_value="21.9 µM (active)"
compound=CN(C)[C@@H]1C(=O)C(C(N)=O)=C(O)[C@@]2(O)C(=O)C3=C(O)c4c(O)cccc4C[C@H]3C[C@@H]12 reported_value=inactive
compound=COc1cc(/C=C/C(=O)O[C@H]2CC[C@]34C[C@]35CC[C@]3(C)[C@@H]([C@H](C)CCC=C(C)C)CC[C@@]3(C)[C@@H]5CC[C@H]4C2(C)C)ccc1O reported_value=inactive
compound=CCCCCCCC[P+](CCCCCCCC)(CCCCCCCC)CCCCCCCC reported_value="13.7 µM (active)"

stdin: Give the value of Potency reported for the following: NC(=O)C1(N2CCCCC2)CCN(CCCN2c3ccccc3CCc3ccc(Cl)cc32)CC1
stdout: 21.3 µM (active)

stdin: Given the compound CCCCCCCCNC(C)C(O)c1ccc(SC(C)C)cc1 (stereo not given) , write its reported Potency.
stdout: 9.52 µM (active)

stdin: Recall and state the measured Potency for CS(=O)(=O)CCNCc1ccc(-c2ccc3ncnc(Nc4ccc(OCc5cccc(F)c5)c(Cl)c4)c3c2)o1 .
stdout: 21.3 µM (active)

stdin: Recall and state the measured Potency for CCOC(=O)O[C@]1(C(=O)OCCl)CC[C@H]2[C@@H]3CCC4=CC(=O)C=C[C@]4(C)[C@H]3[C@@H](O)C[C@@]21C .
stdout: inactive

stdin: State its Potency: N=C1N=C(N)c2ccccc21
stdout: inactive

stdin: Read off the recorded Potency for CC(C)(C)C(=O)OCOC(=O)[C@@H]1N2C(=O)[C@@H](NC(=O)[C@H](N)c3ccccc3)[C@H]2SC1(C)C
stdout: inactive

====

assay: qHTS assay to identify small molecule HDAC inhibitors (AID 1259364); conditions: HCT-116 HDAC-Glo I/II luminescence, 2 h; series mostly up to 92.4 µM;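 also: wild-type HCT-116 cells with endogenous class I/II HDAC activity; nearly all actives have a fitted effect of over 45% in size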
Results filed as inconclusive are left out. The source made the active and inactive calls. Calls follow the shape of the dose curve; as a rule, active = well fitted inhibition curve with a large enough effect in the repeat runs; inconclusive = weak or mixed curves; inactive = flat fitted curve, though single readings scatter.
One label from this list, please: active, inactive

Example entries begin here.
molecule=CC(C)(C)CC(C)(C)c1ccc(O)c(Cc2ccc(Cl)cc2Cl)c1 class_assignment=inactive
molecule=O=[N+]([O-])c1ccccc1Nc1ccccc1 class_assignment=inactive
molecule=CCCCCOC(=O)CCCC class_assignment=inactive

stdin: Record lookup: outcome of this test for CC(C)(C)C1CCC(CC2=C(O)c3ccccc3C(=O)C2=O)CC1 (configuration not stated) ?
stdout: inactive

stdin: Record lookup: outcome of this test for CSc1ccc(C(=O)c2[nH]c(=O)[nH]c2C)cc1 ?
stdout: inactive

stdin: In this assay, the call recorded for c1cc(C(c2ccc(OCC3CO3)cc2)c2ccc(OCC3CO3)cc2)ccc1OCC1CO1 (configuration not stated) was what?
stdout: inactive

stdin: Which outcome was assigned to CCCCCCCC(=O)[O-].CCCCCCCC(=O)[O-].[Zn+2] in this test?
stdout: inactive

stdin: Please share the test call associated with Nc1nc2ccccc2n1Cc1ccc(F)cc1 .
stdout: inactive

stdin: Called result for Cc1oc(-c2ccccc2)nc1CCC(=O)c1ccc(CC2SC(=O)NC2=O)cc1 (configuration not stated)
stdout: inactive

stdin: How did this test come out for Oc1ccc(N=Nc2ccccc2)cc1 ?
stdout: active

stdin: Check the results log: what was the call for Clc1ccc2nsnc2c1NC1=NCCN1 ?
stdout: inactive

stdin: Assay result, entry N/C(=N\N=C\c1ccc(Cl)cc1)N/N=C/c1ccc(Cl)cc1 — outcome?
stdout: inactive
